# MEASURED ON: human ether-à-go-go-related gene (hERG) potassium channel (human)
# PROCEDURE SUMMARY: primary screen, population patch clamp on CHO cells stably expressing hERG; higher = less effect of the substance
Screen size: about 310,000 compounds; about 14,000 (4.5%) showed an effect of 50% or more. The effect is printed as a negative number. The list comes from a sample in which strong results are over-represented; it also holds close analogues and randomly drawn compounds.
VALUE TYPE: hERG current change (%, negative = inhibition) at 10uM (%)
Give bare numbers, in %.

Take a look at these entries with their results.
>>> value_measured("COc1cc(NC(=O)COC(=O)Cn2cnc3c2c(=O)n(C)c(=O)n3C)cc(OC)c1")
1.05
>>> value_measured("Cc1onc(-c2ccccc2)c1C(=O)Nc1sccc1C#N")
7.27
>>> value_measured("O=C(COC(=O)c1cccs1)Nc1cc(S(=O)(=O)N2CCOCC2)ccc1Cl")
-35.5
>>> value_measured("CNCC(O)C(O)C(O)C(O)CO (stereo not shown)")
-0.427
>>> value_measured("O=C(NCCCN1CCOCC1)c1ccc2c(c1)N(Cc1cccc(Cl)c1)C(=O)CS2")
-16.7

Quick one: give me hERG current change (%, negative = inhibition) at 10uM for each item below, same order please.
1. Cc1ccc(NC(=O)CCN2CC(C)OC(C)C2)cc1C.Cl (stereo not shown)
2. Cc1ccc(NC(=S)N2CCC(NC(=O)c3cccc(F)c3)CC2)cc1
3. Cc1ccc(S(=O)(=O)N(C)C)cc1NC(=O)COC(=O)C1CC1
4. Cc1ccccc1NC(=O)COC(=O)Cc1ccsc1

Result:
1: 19.1; 2: -24.9; 3: 16.2; 4: 12.7

Request: API: value(readout=hERG current change (%, negative = inhibition) at 10uM, system=human ether-à-go-go-related gene (hERG) potassium channel (human)) for record O=C(Nc1cccnc1)c1cc2cc(Br)ccc2o1;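 further: peak tail current of the secondary pulse compared with the same well before compound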
Result: 8.93

----------
# MEASURED ON: human ether-à-go-go-related gene (hERG) potassium channel (human, UniProt Q12809)
# Sequence (Q12809 whole entry, looked up): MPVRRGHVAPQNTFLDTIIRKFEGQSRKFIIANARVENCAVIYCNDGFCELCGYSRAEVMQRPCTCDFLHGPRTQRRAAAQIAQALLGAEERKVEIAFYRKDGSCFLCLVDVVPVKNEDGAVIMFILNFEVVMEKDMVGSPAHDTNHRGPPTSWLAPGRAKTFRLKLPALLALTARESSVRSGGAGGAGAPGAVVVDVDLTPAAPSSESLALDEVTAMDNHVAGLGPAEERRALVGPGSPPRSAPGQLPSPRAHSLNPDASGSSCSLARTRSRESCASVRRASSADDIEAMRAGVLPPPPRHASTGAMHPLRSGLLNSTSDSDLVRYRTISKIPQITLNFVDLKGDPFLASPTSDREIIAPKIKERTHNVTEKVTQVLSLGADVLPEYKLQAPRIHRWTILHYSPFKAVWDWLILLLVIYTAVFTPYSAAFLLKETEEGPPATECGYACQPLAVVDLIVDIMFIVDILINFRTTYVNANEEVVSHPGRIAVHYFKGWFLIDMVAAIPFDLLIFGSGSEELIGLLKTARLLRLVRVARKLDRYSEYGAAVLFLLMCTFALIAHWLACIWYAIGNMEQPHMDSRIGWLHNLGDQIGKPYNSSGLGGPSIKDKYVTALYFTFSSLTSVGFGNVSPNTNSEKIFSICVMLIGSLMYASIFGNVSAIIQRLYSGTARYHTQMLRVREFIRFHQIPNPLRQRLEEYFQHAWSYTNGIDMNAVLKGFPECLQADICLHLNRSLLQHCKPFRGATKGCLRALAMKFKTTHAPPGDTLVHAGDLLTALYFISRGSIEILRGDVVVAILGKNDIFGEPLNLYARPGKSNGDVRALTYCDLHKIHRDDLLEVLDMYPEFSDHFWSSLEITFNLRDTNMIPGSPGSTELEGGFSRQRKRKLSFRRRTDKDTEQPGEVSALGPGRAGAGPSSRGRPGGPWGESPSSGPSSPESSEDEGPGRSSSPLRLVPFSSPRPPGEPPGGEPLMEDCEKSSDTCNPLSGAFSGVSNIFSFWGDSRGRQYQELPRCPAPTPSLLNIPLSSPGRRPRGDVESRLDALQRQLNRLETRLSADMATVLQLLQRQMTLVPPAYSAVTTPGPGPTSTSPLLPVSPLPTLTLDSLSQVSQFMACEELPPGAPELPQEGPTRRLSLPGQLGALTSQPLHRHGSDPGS
# PROCEDURE SUMMARY: primary screen, population patch clamp on CHO cells stably expressing hERG; higher = less effect of the substance
The campaign covered roughly 310,000 compounds. About 14,000 (4.5%) showed an effect of 50% or more. The effect is printed as a negative number. The sample as a whole holds a higher share of strong results than the screen did.
VALUE TYPE: hERG current change (%, negative = inhibition) at 10uM (%)
Give bare numbers, in %.

Solved entries (count: 8):
>>> value_measured("COc1ccc(CN2CCCC(C(=O)Nc3cccc(-n4cnnn4)c3)C2)c(C)c1C (stereo not drawn)")
-62.7
>>> value_measured("O=C(Nc1cccc(-n2cnnn2)c1)C1CCCN(Cc2cccc(C(F)(F)F)c2)C1 (stereo not drawn)")
-59.8
>>> value_measured("Cc1ccc(N2C(=O)CC(Nc3ccc(Cl)c(S(=O)(=O)N(C)C)c3)C2=O)c(C)c1 (stereo not drawn)")
-4.31
>>> value_measured("COc1cc(CSc2nnnn2-c2ccc(C)cc2)cc(OC)c1OC")
8.81
>>> value_measured("CCOC(=O)Cc1[nH]nc2c1C(c1cccc(OC)c1OC)C(C#N)=C(N)O2 (stereo not drawn)")
-0.21
>>> value_measured("CN(C)S(=O)(=O)c1cc(NC2CC(=O)N(c3ccc(F)cc3)C2=O)ccc1Cl (stereo not drawn)")
-51.1
>>> value_measured("COc1ccc(CN2CCCC(C(=O)Nc3cccc(-n4cccn4)c3)C2)c(F)c1 (stereo not drawn)")
-30.3
>>> value_measured("CCn1ccnc1CNCc1ccc(OCC(O)CN(C)Cc2ccccc2)cc1 (stereo not drawn)")
-11.7

Turning to the following compound.
Request: Given the entry Cn1cc(CN2CCCC(C(=O)Nc3cccc(-n4cccn4)c3)C2)cn1 (stereo not drawn) , report its measured hERG current change (%, negative = inhibition) at 10uM.
Result: -5.79

----------
# MEASURED ON: human ether-à-go-go-related gene (hERG) potassium channel (human, UniProt Q12809)
# PROCEDURE SUMMARY: primary screen, population patch clamp on CHO cells stably expressing hERG; higher = less effect of the substance
Among all 310,000 compounds or so, about 14,000 (4.5%) showed an effect of 50% or more. The effect is printed as a negative number. This excerpt belongs to a sample that is enriched for strong results.
For each entry below, report its hERG current change (%, negative = inhibition) at 10uM value.
Param answer (str): number followed by unit.

Consider the following items and state reported hERG current change (%, negative = inhibition) at 10uM for each.
1. COc1ccc(CNC(=O)c2cccc3c2C(=O)N(Cc2cccnc2)C3)cc1
2. CCCOc1ccc(/C=N/Nc2cc(N3CCOCC3)ncn2)c(O)c1
3. Cc1ccc(NC(=O)CN(C)C(=O)c2ccc3[nH]c4c(c3c2)CC(C)CC4)cc1 (centres unmarked)
4. CN(C)C(CNS(=O)(=O)c1ccc(Br)cc1)c1cccnc1 (centres unmarked)
5. CCOc1ccc(NC(=O)c2cccc3c2C(=O)N(Cc2cccnc2)C3)cc1
6. CCN1CCN(C(CNS(=O)(=O)c2ccc(Br)cc2)c2cccnc2)CC1 (centres unmarked)
7. CCCCOc1ccc(/C=N/NC(=S)Nc2cccc(C)c2C)cc1
8. COP(=O)(OC)C(Nc1ccccc1)c1ccccc1 (centres unmarked)

Result:
["-38.6%", "13.4%", "8.58%", "-11.3%", "-22%", "-65.8%", "-15.8%", "11.4%"]

----------
# MEASURED ON: human ether-à-go-go-related gene (hERG) potassium channel (human, UniProt Q12809)
# PROCEDURE SUMMARY: primary screen, population patch clamp on CHO cells stably expressing hERG; higher = less effect of the substance
Among all 310,000 compounds or so, about 14,000 (4.5%) showed an effect of 50% or more. Effects have a minus sign here. Only a selection was taken, and strong results are over-represented in it overall.
VALUE TYPE: hERG current change (%, negative = inhibition) at 10uM (%)
Give bare numbers, in %.

Look over these answered cases.
>>> value_measured("O=C(c1ccccc1)N1CN2CN(C(=O)c3ccccc3)CC([N+](=O)[O-])(C2)C1")
21.8
>>> value_measured("COc1ccc(CCN(Cc2ccc(C(C)C)cc2)S(=O)(=O)c2ccc(S(=O)(=O)N(C)C)cc2)cc1OC")
-11.1

Batch request: hERG current change (%, negative = inhibition) at 10uM for each of the following compounds.
1. Cc1cc([N+](=O)[O-])nn1CCCC(=O)N1CCN(c2ccccc2)CC1
2. CCn1c(SC(C)C(=O)N2CCOCC2)nc2sc(C)c(C)c2c1=O (centres unmarked)
3. Cc1cc(C)n2c(Br)c(CSc3nc4ccccc4s3)nc2n1
4. O=c1c2ccccc2nc(SCc2nc3ccccc3s2)n1CCCO
5. CCC(=O)C(C#N)(c1ccc(OC)c(OC)c1)C(C)C (centres unmarked)
6. COc1ccccc1N1CCN(C(=O)CCCn2nc(C)c([N+](=O)[O-])c2C)CC1

Result:
1. -21.4
2. 3.37
3. -76.7
4. -4.88
5. -7.65
6. -19.1

----------
I'd appreciate it if you could supply hERG current change (%, negative = inhibition) at 10uM values for the items below.
# MEASURED ON: human ether-à-go-go-related gene (hERG) potassium channel (human)
# PROCEDURE SUMMARY: primary screen, population patch clamp on CHO cells stably expressing hERG; higher = less effect of the substance
In all, about 310,000 compounds went through this assay and about 14,000 (4.5%) showed an effect of 50% or more. The effect is printed as a negative number. For the sample, strong results were picked, then their nearest neighbours and some compounds at random.
Give bare numbers, in %.

Example compounds with recorded hERG current change (%, negative = inhibition) at 10uM:
>>> value_measured("COc1cc(CC(=O)OCC(=O)c2ccc3c(c2)OCCO3)cc(OC)c1OC")
-58.6
>>> value_measured("Cc1ccc(NCc2nnc(SCC(=O)Nc3cccc(O)c3)n2CC2CCCO2)c(C)c1 (centres unmarked)")
-68.2
>>> value_measured("CCc1cccc(NC(=O)CNC(=O)N2CC(=O)Nc3ccccc32)c1")
-8.55
>>> value_measured("c1ccc(N=Nc2ccc3cccccc2-3)cc1")
8.38

Request: Tell me the measured hERG current change (%, negative = inhibition) at 10uM of O=c1[nH]c2ccc(S(=O)(=O)N3CCN(C4CCCCC4)CC3)cc2[nH]c1=O , please.
Result: 0.776

----------
# MEASURED ON: human ether-à-go-go-related gene (hERG) potassium channel (human)
# PROCEDURE SUMMARY: primary screen, population patch clamp on CHO cells stably expressing hERG; higher = less effect of the substance
In all, about 310,000 compounds went through this assay and about 14,000 (4.5%) showed an effect of 50% or more. Effects have a minus sign here. This is one part of a sample in which strong results are shown more often than they occur.
I'd appreciate it if you could supply hERG current change (%, negative = inhibition) at 10uM values for the items below.
One number for each entry, in %.

>>> value_measured("COc1cccc(CN(C)CC(=O)Nc2sc3c(c2C#N)CCC3)c1OC")
10.3
>>> value_measured("O=C1CC(N2CCN(C3CCc4ccccc4C3)CC2)C(=O)N1c1ccccc1 (stereo not shown)")
-64.6
>>> value_measured("O=C(c1c[nH]c2ccccc12)N1CCOCC1")
8.48
>>> value_measured("CC1CCN(C2CC(=O)N(c3ccccc3)C2=O)CC1 (stereo not shown)")
8.4
>>> value_measured("COc1cc(C(=O)NC2Cc3ccccc3C2)ccc1OC1CCN(C(C)=O)CC1")
4.22
>>> value_measured("Cc1ccc(N2C(=O)CC(N3CCN(C4CCc5ccccc5C4)CC3)C2=O)cc1 (stereo not shown)")
-75.1
>>> value_measured("COc1ccc(C(=O)NCCc2ccccc2F)cc1OC1CCN(C(C)=O)CC1")
4.19
>>> value_measured("Cc1ccc(-c2cc(-c3ccccc3Cl)c(C#N)c(N)n2)o1")
3.05
>>> value_measured("C=CCC(O)(CC=C)CNC(=O)c1ccc(OC)c(OC2CCN(C(C)=O)CC2)c1")
14.9

Please examine the following record next.
Request: Endpoint output: hERG current change (%, negative = inhibition) at 10uM of COc1ccc(C(=O)NC2CC2)cc1OC1CCN(Cc2ccccc2F)CC1 . Value?
Result: -78

These data points were gathered from paper PMC4336329.
